- System: Cdk14/CycY (Homo sapiens (Human), UniProt O94921)
- Sequence (O94921 whole entry): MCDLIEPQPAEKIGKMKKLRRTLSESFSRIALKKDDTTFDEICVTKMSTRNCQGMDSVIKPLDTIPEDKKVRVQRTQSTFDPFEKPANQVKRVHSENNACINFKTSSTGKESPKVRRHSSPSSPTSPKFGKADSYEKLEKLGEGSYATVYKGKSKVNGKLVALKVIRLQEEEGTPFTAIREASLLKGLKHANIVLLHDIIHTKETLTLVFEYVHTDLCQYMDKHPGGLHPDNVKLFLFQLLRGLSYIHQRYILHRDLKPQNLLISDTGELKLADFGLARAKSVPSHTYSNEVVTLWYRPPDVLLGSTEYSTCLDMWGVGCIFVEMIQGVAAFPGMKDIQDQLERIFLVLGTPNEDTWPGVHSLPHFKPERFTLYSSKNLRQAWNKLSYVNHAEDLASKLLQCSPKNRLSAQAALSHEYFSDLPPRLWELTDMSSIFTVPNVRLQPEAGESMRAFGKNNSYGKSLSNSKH
- Sequence (Q8ND76 whole entry partner): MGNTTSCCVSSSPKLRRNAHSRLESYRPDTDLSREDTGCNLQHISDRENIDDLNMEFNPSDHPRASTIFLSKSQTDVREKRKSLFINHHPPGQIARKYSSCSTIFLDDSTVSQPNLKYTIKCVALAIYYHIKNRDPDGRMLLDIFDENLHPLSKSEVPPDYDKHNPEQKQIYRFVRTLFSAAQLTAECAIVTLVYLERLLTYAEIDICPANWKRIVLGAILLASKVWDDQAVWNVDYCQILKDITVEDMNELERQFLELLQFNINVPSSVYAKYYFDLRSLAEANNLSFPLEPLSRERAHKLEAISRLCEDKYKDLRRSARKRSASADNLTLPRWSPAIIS
- Protocol details: Lanthascreen Eu kinase binding assay for Cdk14/CycY with 30 minute pre-incubation
- Study conditions: 30 minute pre-incubation of kinase with compound; read-out: CDK14 IC50 (nM) LanthaScreen
Metric: IC50 (nM)
State the answer as a number, implicitly in nM.

// map CN(C)C/C=C/C(=O)Nc1cccc(S(=O)(=O)N2CCC(NC(=O)c3n[nH]cc3NC(=O)c3c(Cl)cc(Cl)cc3Cl)CC2)c1 [FMF-04-159-2] to recorded IC50 (system: Cdk14/CycY (Homo sapiens (Human), UniProt O94921))
46.6

* * *

- System: CDK16/CycY (Homo sapiens (Human))
- Sequence (Q00536 whole entry): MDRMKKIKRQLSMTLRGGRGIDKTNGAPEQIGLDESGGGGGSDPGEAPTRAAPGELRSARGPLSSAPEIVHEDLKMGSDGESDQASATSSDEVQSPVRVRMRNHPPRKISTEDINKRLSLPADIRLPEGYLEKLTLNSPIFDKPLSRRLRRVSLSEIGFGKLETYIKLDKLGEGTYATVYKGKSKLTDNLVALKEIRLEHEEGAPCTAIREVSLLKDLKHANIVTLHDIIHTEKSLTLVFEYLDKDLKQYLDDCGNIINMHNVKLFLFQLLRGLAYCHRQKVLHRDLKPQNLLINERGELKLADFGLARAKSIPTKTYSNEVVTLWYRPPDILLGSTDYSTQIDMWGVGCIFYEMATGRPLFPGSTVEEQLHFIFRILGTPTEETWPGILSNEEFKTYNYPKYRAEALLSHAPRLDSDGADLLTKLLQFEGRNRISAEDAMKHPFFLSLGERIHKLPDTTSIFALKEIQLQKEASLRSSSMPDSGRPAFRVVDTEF
- Sequence (Q8ND76 whole entry partner): as the sequence (Q8ND76 whole entry partner) above
- Protocol details: Lanthascreen Eu kinase binding assay for CDK16/CycY
- Study conditions: read-out: IC50 CDK16 Lanthascreen binding
Metric: log10 IC50 (log10 of the value in nM)
The figures below represent log10 of IC50, where IC50 is stated in nM.

Recorded log10 IC50 of CN(C)C/C=C/C(=O)Nc1cccc(S(=O)(=O)N2CCC(NC(=O)c3n[nH]c(-c4ccccc4)c3NC(=O)c3c(Cl)cccc3Cl)CC2)c1 , please.
3.77

Recorded log10 IC50 of CN(C)C/C=C/C(=O)Nc1cccc(CN2CCC(NC(=O)c3n[nH]cc3NC(=O)c3c(F)cc(F)cc3F)CC2)c1 , please.
2.04

Recorded log10 IC50 of CCC(=O)Nc1cccc(S(=O)(=O)N2CCC(NC(=O)c3n[nH]cc3NC(=O)c3c(Cl)cccc3OC)CC2)c1 , please.
0.53

Recorded log10 IC50 of COc1ccc(Cl)c(C(=O)Nc2c[nH]nc2C(=O)NC2CCN(S(=O)(=O)c3cccc(NC(=O)/C=C/CN(C)C)c3)CC2)c1Cl , please.
0.26

Recorded log10 IC50 of CN(C)C/C=C/C(=O)Nc1cccc(S(=O)(=O)N2CCC(NC(=O)c3n[nH]cc3NC(=O)c3c(F)cccc3F)CC2)c1 , please.
0.41

Recorded log10 IC50 of COc1cccc(Cl)c1C(=O)Nc1c[nH]nc1C(=O)NC1CCN(S(=O)(=O)c2cccc(NC(=O)/C=C/CN(C)C)c2)CC1 , please.
0.36

* * *

- System: Cdk14 (Homo sapiens (Human), UniProt O94921)
- Sequence (O94921 whole entry): as the sequence (O94921 whole entry) above
- Protocol details: Cellular pull down with biotinylated probe, CDK14;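 also: biotinylated probe used at 1 µM in lysates overnight at 4 °C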
- Type: cell-based
- Study conditions: HEK293 cells overexpressing Cdk14-flag, 4 hours treatment; some cells print Y or N instead of a concentration
For each record, write down the corresponding Cellular Potency by Pulldown.
State the answer as a number, implicitly in nM.

Recorded Cellular Potency by Pulldown of CCOc1cccc(Cl)c1C(=O)Nc1c[nH]nc1C(=O)NC1CCN(S(=O)(=O)c2cccc(NC(=O)/C=C/CN(C)C)c2)CC1 , please.
1000

Recorded Cellular Potency by Pulldown of C=CC(=O)Nc1cccc(CN2CCC(NC(=O)c3n[nH]cc3NC(=O)c3c(Cl)cccc3OC)CC2)c1 , please.
100

Recorded Cellular Potency by Pulldown of CN(C)C/C=C/C(=O)Nc1cccc(S(=O)(=O)N2CCC(NC(=O)c3n[nH]cc3NC(=O)c3c(Cl)cc(Cl)cc3Cl)CC2)c1 , please.
500

Recorded Cellular Potency by Pulldown of C=CC(=O)Nc1cccc(C(=O)Nc2ccc(NC(=O)c3n[nH]cc3NC(=O)c3c(Cl)cccc3Cl)cc2)c1 , please.
500

Recorded Cellular Potency by Pulldown of COc1ccc(Cl)c(C(=O)Nc2c[nH]nc2C(=O)NC2CCN(S(=O)(=O)c3cccc(NC(=O)/C=C/CN(C)C)c3)CC2)c1Cl , please.
100

Recorded Cellular Potency by Pulldown of C=CC(=O)Nc1cccc(S(=O)(=O)N2CCC(NC(=O)c3n[nH]cc3NC(=O)c3c(Cl)ccc(OC)c3Cl)CC2)c1 , please.
100

* * *

- Test system: HCT116 cells
- Protocol details: Antiproliferation assay, Cell Titer Glo, 72 hours
- Type: cell-based
- Study conditions: Homo sapiens, HCT-116, 72 h
For each record, write down the corresponding IC50.
State the answer as a number, implicitly in µM.

Recorded IC50 of CN(C)C/C=C/C(=O)Nc1cccc(NC(=O)c2n[nH]cc2NC(=O)c2c(Cl)cccc2Cl)c1 , please.
0.723

Recorded IC50 of C=CC(=O)Nc1ccc(C(=O)Nc2ccc(NC(=O)c3n[nH]cc3NC(=O)c3c(Cl)cccc3Cl)cc2)cc1 , please.
0.008

Recorded IC50 of CCC(=O)Nc1cccc(S(=O)(=O)N2CCC(NC(=O)c3n[nH]cc3NC(=O)c3c(Cl)cccc3OC)CC2)c1 , please.
0.172

Recorded IC50 of CCC(=O)Nc1cccc(CN2CCC(NC(=O)c3n[nH]cc3NC(=O)c3c(Cl)cccc3Cl)CC2)c1 , please.
0.123

* * *

- Test system: HCT116 cells
- Protocol details: Antiproliferation assay, Cell Titer Glo, 72 hours
- Assay type: cell-based
- Study conditions: Homo sapiens, HCT-116, 72 h
- Protocol: HCT116 cells were plated in 384-well plates at 750 cells/well in 50 ul fresh media (McCoy's 5A+10% FBS+1% Penn/Strep) and treated with 0.1 μl candidate compounds in four-fold dilution series using the Janus pinner. Cells were incubated with compounds for 72 hours in 37° C. […] Anti-proliferative effects of these compounds were assessed 72 hours after compound addition using Cell Titer Glo (Promega cat #G7571) as described in product manual by luminescence measurements using an Envision platereader. […]
Metric: pIC50
Please keep in mind that pIC50 is minus log10 of the molar concentration; only the number is needed.

Recorded pIC50 of CN(C)C/C=C/C(=O)Nc1cccc(S(=O)(=O)N2CCC[C@@H](NC(=O)c3n[nH]cc3NC(=O)c3c(Cl)cccc3Cl)C2)c1 , please.
5.01

Recorded pIC50 of C=CC(=O)Nc1cccc(CN2CC[C@H](NC(=O)c3n[nH]cc3NC(=O)c3c(Cl)cccc3Cl)C2)c1 , please.
7.57

Recorded pIC50 of CN(C)C/C=C/C(=O)Nc1cccc(S(=O)(=O)N2CCC(NC(=O)c3n[nH]cc3NC(=O)c3ccccc3)CC2)c1 , please.
6.36

Recorded pIC50 of COc1cccc(F)c1C(=O)Nc1c[nH]nc1C(=O)NC1CCN(Cc2cccc(NC(=O)/C=C/CN(C)C)c2)CC1 , please.
7.11

* * *

For each record, write down the corresponding IC50.
- System: CDK16/CycY (Homo sapiens (Human))
- Protocol details: Lanthascreen Eu kinase binding assay for CDK16/CycY
- Study conditions: read-out: IC50 CDK16 Lanthascreen binding
// return the numeric value with its unit appended

Recorded IC50 of Cc1[nH]nc(C(=O)NC2CCN(S(=O)(=O)c3cccc(NC(=O)/C=C/CN(C)C)c3)CC2)c1NC(=O)c1c(Cl)cccc1Cl , please.
124 nM

Recorded IC50 of C=CC(=O)Nc1cccc(C(=O)N2CCC(NC(=O)c3n[nH]cc3NC(=O)c3c(Cl)cccc3Cl)CC2)c1 , please.
11.4 nM

Recorded IC50 of C=CC(=O)Nc1cccc(S(=O)(=O)N2CCC(NC(=O)c3n[nH]cc3NC(=O)c3c(Cl)cc(Cl)cc3Cl)CC2)c1 , please.
46.6 nM

Recorded IC50 of CCC(=O)Nc1cccc(CN2CCC(NC(=O)c3n[nH]cc3NC(=O)c3c(Cl)cccc3Cl)CC2)c1 , please.
29.4 nM

Recorded IC50 of CN(C)C/C=C/C(=O)Nc1cccc(CN2CCC(NC(=O)c3n[nH]cc3NC(=O)c3c(Cl)cccc3Cl)CC2)c1 , please.
10.2 nM

Recorded IC50 of CN(C)C/C=C/C(=O)Nc1cccc(S(=O)(=O)N2CCC(NC(=O)c3n[nH]cc3NC(=O)c3c(Cl)cc(Cl)cc3Cl)CC2)c1 , please.
8.2 nM

Recorded IC50 of CN(C)C/C=C/C(=O)Nc1cccc(S(=O)(=O)N2CCC(N(C)C(=O)c3n[nH]cc3NC(=O)c3c(Cl)cccc3Cl)CC2)c1 , please.
894 nM

Recorded IC50 of CN(C)C/C=C/C(=O)Nc1ccc(S(=O)(=O)N2CCC(NC(=O)c3n[nH]cc3NC(=O)c3c(Cl)cccc3Cl)CC2)cc1 , please.
1.2 nM

Recorded IC50 of CN(C)C/C=C/C(=O)Nc1ccc(C(=O)Nc2ccc(NC(=O)c3n[nH]cc3NC(=O)c3c(Cl)cccc3Cl)cc2)cc1 , please.
111 nM

Recorded IC50 of C=CC(=O)Nc1cccc(CN2CCC(NC(=O)c3n[nH]cc3NC(=O)c3c(F)cccc3F)CC2)c1 , please.
120 nM

Recorded IC50 of COc1ccccc1CC(=O)Nc1c[nH]nc1C(=O)NC1CCN(S(=O)(=O)c2cccc(NC(=O)/C=C/CN(C)C)c2)CC1 , please.
17 nM

Recorded IC50 of CCOc1cccc(Cl)c1C(=O)Nc1c[nH]nc1C(=O)NC1CCN(S(=O)(=O)c2cccc(NC(=O)/C=C/CN(C)C)c2)CC1 , please.
2.91 nM

Recorded IC50 of C=CC(=O)Nc1ccc(CNC(=O)c2n[nH]cc2NC(=O)c2c(Cl)cccc2Cl)cc1 , please.
478 nM

Recorded IC50 of CN(C)C/C=C/C(=O)Nc1cccc(S(=O)(=O)N2CCC(NC(=O)c3n[nH]cc3NC(=O)c3c(Cl)cccc3Cl)CC2)c1 , please.
0.9 nM

Recorded IC50 of CN(C)C/C=C/C(=O)Nc1cccc(S(=O)(=O)N2CCC(NC(=O)c3n[nH]cc3NC(=O)c3c(F)cc(F)cc3F)CC2)c1 , please.
5.2 nM

Recorded IC50 of CN(C)C/C=C/C(=O)Nc1cccc(S(=O)(=O)N2CCC(NC(=O)c3nscc3NC(=O)c3c(Cl)cccc3Cl)CC2)c1 , please.
404 nM

Recorded IC50 of CN(C)C/C=C/C(=O)Nc1cccc(S(=O)(=O)N2CCC(NC(=O)c3c(NC(=O)c4c(Cl)cccc4Cl)cnn3C)CC2)c1 , please.
6700 nM
